Values were extracted from patent US20180099931A1.

- ASSAY_SYSTEM: F508delCFTR (Homo sapiens, UniProt P13569, DEL508-508)
- Construct: expressed in transfected cells; host or cells: CFBE41o- human lung-derived epithelial cells (CFBE4lo-F508delCFTR-HRP), doxycycline-inducible
- Sequence (P13569 with tags, fused parts or gaps DEL508-508): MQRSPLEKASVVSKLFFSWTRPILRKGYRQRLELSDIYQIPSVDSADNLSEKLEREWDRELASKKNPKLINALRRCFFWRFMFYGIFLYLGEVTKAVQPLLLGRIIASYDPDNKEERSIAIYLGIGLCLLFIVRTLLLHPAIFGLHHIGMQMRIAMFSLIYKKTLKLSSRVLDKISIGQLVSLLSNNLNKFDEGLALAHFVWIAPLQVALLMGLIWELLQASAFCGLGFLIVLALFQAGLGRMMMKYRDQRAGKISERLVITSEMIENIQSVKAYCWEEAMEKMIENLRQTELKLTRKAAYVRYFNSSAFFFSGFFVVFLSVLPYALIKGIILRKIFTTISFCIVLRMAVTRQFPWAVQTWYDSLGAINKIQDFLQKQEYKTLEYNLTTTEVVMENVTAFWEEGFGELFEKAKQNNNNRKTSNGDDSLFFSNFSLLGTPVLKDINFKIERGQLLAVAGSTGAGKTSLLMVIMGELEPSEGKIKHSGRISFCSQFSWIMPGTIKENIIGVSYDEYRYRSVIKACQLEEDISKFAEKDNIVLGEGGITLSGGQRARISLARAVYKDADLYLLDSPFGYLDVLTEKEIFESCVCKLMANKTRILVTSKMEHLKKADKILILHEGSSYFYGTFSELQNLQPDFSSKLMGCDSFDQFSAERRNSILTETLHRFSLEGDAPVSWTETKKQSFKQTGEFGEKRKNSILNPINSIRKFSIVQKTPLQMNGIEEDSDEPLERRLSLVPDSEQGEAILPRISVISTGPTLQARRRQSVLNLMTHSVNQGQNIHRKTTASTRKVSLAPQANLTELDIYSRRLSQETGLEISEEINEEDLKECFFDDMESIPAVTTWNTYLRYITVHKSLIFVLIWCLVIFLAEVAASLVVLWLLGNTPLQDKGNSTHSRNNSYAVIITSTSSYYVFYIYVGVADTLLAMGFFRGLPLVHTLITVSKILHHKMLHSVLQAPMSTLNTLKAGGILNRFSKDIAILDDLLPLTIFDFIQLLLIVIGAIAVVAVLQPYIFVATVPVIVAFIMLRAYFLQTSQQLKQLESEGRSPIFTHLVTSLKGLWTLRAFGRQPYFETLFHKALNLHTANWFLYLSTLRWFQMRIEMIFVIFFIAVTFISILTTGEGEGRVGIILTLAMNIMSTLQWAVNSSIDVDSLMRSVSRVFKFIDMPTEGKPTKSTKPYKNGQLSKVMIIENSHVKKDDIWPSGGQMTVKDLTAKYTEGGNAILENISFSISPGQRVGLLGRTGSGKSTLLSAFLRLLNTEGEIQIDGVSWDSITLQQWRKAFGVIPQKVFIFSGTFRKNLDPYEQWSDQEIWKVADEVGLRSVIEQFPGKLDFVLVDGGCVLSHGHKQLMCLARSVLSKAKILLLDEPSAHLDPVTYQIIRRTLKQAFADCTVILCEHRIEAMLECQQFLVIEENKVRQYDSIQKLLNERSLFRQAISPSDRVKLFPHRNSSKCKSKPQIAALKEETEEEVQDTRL
- METHOD_NOTES: Cell Surface Expression-Horse Radish Peroxidase (CSE-HRP) Assay
- Type: cell-based
- CONDITION_SUMMARY: test compound without co-corrector; read-out: EC50 (without co-corrector)
pEC50: −log10 of the molar value.
Recorded pEC50 values for a group of molecules are listed next.

Illustrative cases are given below, each with its answer.
COc1ncc(C(F)(F)F)cc1CN[C@H]1[C@H](C(C)(C)C)[C@@H](C(=O)O)N(C(=O)[C@H](C)OC)[C@H]1c1ccccc1C(C)C [II-590]
5.00 to 6.00
CCc1c(C(=O)N2[C@H](C(=O)O)[C@@H](C(C)(C)C)[C@H](NCc3cc(C(C)(C)C)ccc3OC)[C@@H]2c2ccccc2)c(C)nn1-c1ccc(F)cc1 [II-359]
5.00 to 6.00

Turning now to a further molecule:
query: Give pEC50 for COc1ccc(OC(F)F)c(CN[C@@H]2[C@@H](C(C)(C)C)[C@H](C(=O)O)N(C(=O)C3CCCCC3)[C@@H]2c2ccccc2)c1 (racemic) [Example I-14]
result: < 5.00

###

- ASSAY_SYSTEM: F508delCFTR (Homo sapiens, UniProt P13569, DEL508-508)
- Construct: expressed in transfected cells; host or cells: CFBE41o- human lung-derived epithelial cells (CFBE4lo-F508delCFTR-HRP), doxycycline-inducible
- METHOD_NOTES: Cell Surface Expression-Horse Radish Peroxidase (CSE-HRP) Assay
- Format: cell-based
- CONDITION_SUMMARY: with co-corrector (2 μM of 3-[(2R,4R)-4-({[1-(2,2-difluoro-1,3-benzodioxol-5-yl)cyclopropyl]carbonyl}amino)-7-methoxy-3,4-dihydro-2H-chromen-2-yl]benzoic acid); read-out: EC50 (with co-corrector)
Recorded EC50 by entry

COc1ccc(C(C)(C)C#N)cc1CN[C@H]1[C@H](C(C)(C)C)[C@@H](C(=O)O)N(C(=O)C2CCCCC2)[C@H]1c1ccccc1 [Example I-88]
1 to 10 µM
COc1cc(C(F)(F)F)ccc1CN[C@H]1[C@H](C(C)(C)C)[C@@H](C(=O)O)N(C(=O)OC(C)C)[C@H]1c1ccccc1 [II-487]
1 to 10 µM
COc1ccc(C(F)(F)F)c(CN[C@@H]2[C@@H](C(C)(C)C)[C@H](C(=O)O)N(C(=O)C3CCCCC3)[C@@H]2c2ccccc2)c1 (racemic) [III-106]
1 to 10 µM
COc1ccc(C(F)(F)F)cc1CN[C@H]1[C@H](C(C)(C)C)[C@@H](C(=O)O)N(C(=O)C2CCC(C)(C)O2)[C@H]1c1ccccc1 (stereo partly shown) [Example I-164]
1 to 10 µM
COc1ncc(C(F)(F)F)cc1CN[C@H]1[C@H](C(C)(C)C)[C@@H](C(=O)O)N(C(=O)C2CCC(C)(C)O2)[C@H]1c1ccccc1 (stereo partly shown) [II-434]
1 to 10 µM
COc1ccc(C2CCC2)cc1CN[C@H]1[C@H](C(C)(C)C)[C@@H](C(=O)O)N(C(=O)C2CCCCC2)[C@H]1c1ccccc1 [Example I-68]
< 1 µM

query: Tell me measured EC50 for COc1nc(C(C)(C)C)ccc1CN[C@H]1[C@H](C(C)(C)C)[C@@H](C(=O)O)N(C(=O)[C@H]2CCCCO2)[C@H]1c1ccccc1 [Example 39] please.
result: 1 to 10 µM
